Molecular target: AhR receptor (Homo sapiens, UniProt P35869)
Construct: expression of native (Human Hepatoma Huh-7) AhR receptor reporter gene cells; endogenous in cells; host or cells: Human hepatoma Huh-7 reporter cells (firefly luciferase under receptor-specific response elements)
Sequence (P35869 11-848): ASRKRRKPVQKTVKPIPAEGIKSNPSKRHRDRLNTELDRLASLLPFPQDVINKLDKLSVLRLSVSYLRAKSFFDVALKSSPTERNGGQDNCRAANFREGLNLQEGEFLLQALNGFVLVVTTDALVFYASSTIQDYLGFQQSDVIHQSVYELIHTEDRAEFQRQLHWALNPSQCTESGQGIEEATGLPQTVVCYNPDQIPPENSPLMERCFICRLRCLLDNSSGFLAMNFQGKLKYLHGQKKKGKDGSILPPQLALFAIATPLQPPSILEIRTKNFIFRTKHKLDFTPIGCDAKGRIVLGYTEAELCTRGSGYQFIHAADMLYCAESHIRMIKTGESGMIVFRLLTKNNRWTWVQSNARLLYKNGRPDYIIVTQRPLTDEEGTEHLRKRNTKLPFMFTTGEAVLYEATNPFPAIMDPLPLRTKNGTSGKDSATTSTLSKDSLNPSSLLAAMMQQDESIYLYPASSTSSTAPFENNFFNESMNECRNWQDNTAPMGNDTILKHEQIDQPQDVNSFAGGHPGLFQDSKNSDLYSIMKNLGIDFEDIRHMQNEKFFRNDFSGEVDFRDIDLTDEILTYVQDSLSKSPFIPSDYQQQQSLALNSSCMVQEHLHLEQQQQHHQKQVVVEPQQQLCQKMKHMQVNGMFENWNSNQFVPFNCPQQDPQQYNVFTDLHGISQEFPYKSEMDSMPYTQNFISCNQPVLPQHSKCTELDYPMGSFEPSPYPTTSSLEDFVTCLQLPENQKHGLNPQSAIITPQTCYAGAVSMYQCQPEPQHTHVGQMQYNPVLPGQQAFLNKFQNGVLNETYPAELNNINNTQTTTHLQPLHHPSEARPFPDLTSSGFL
Assay: AhR agonism assay (luciferase reporter gene cells)
Assay type: cell-based
Conditions: Human Hepatoma Huh-7 AhR reporter gene cells, 24 h incubation at 37° C., 0.1% DMSO; read-out: EC50
Items are presented alongside their recorded EC50.

- MOLECULE: "COC(=O)CNC(=O)c1csc(C(=O)c2c[nH]c3ccccc23)n1"
  TESTED ON: "AhR receptor (Homo sapiens, UniProt P35869)"
  EC50: "1 to 1000 nM"
- MOLECULE: "COC(=O)c1csc(C(=O)c2cn(COC(=O)[C@@H](N)C(C)C)c3ccccc23)n1"
  TESTED ON: "AhR receptor (Homo sapiens, UniProt P35869)"
  EC50: "1 to 1000 nM"
- MOLECULE: "COCCOCCOCCOCC(=O)OCn1cc(C(=O)c2nc(C(=O)OC)cs2)c2ccccc21"
  TESTED ON: "AhR receptor (Homo sapiens, UniProt P35869)"
  EC50: "1 to 1000 nM"

Lookup: Need EC50, item CO/N=C(\c1nc(C(=O)OC)cs1)c1c[nH]c2ccccc12
Found: 1000 to 10000 nM

Lookup: What do we get for COC(=O)c1nnc(C(=O)c2c[nH]c3ccccc23)o1 ?
Found: 1000 to 10000 nM

Lookup: What do we get for COC(=O)c1csc(C(=O)c2cn(COC(=O)[C@@H](N)C(C)(C)C)c3ccccc23)n1 ?
Found: 1 to 1000 nM

Lookup: What do we get for O=C(c1nc(-c2cnccn2)cs1)c1c[nH]c2ccccc12 ?
Found: 1 to 1000 nM

Lookup: What do we get for COC(=O)c1csc(C(=O)c2cn(C3OC(COC(C)=O)C(O)C(O)C3O)c3ccccc23)n1 (centres unmarked) ?
Found: 1 to 1000 nM

###

molecular target: AhR receptor (Homo sapiens, UniProt P35869); construct: expression of native (Human Hepatoma Huh-7) AhR receptor reporter gene cells; endogenous in cells; host or cells: Human hepatoma Huh-7 reporter cells (firefly luciferase under receptor-specific response elements); test: AhR agonism assay (luciferase reporter gene cells); format: cell-based; details: Human Hepatoma Huh-7 AhR reporter gene cells, 24 h incubation at 37° C., 0.1% DMSO; read-out: EC50
Items are presented alongside their recorded EC50.

- MOLECULE: "COC(=O)c1c[nH]c(C(=O)c2c[nH]c3ccccc23)n1"
  OBSERVED VALUE: "0.001 to 1 µM"

Lookup: Need EC50, item COC(=O)c1csc(Cc2c[nH]c3ccccc23)n1
Found: 10 to 100 µM

Lookup: What do we get for N#Cc1csc(C(=O)c2c[nH]c3ccccc23)n1 ?
Found: 0.001 to 1 µM

Lookup: What do we get for COC(=O)c1csc(C(=O)c2cn(C3OC(CO)C(O)C(O)C3O)c3ccccc23)n1 (stereo not shown) ?
Found: 0.001 to 1 µM

Lookup: What do we get for O=C(c1nc(-c2nccs2)cs1)c1c[nH]c2ccccc12 ?
Found: 0.001 to 1 µM

Lookup: What do we get for O=C(c1nc(-c2nnn[nH]2)cs1)c1c[nH]c2ccccc12 ?
Found: 1 to 10 µM

Lookup: What do we get for COC(=O)[C@@H]1COC(c2csc(C(=O)c3c[nH]c4ccccc34)n2)=N1 ?
Found: 0.001 to 1 µM

Lookup: What do we get for CC(C)[C@H](N)C(=O)n1cc(C(=O)c2nc(-c3nccs3)cs2)c2ccccc21 ?
Found: 0.001 to 1 µM

Lookup: What do we get for COCCOCCOCCOCC(=O)OCC(=O)OCn1cc(C(=O)c2nc(C(=O)OC)cs2)c2ccccc21 ?
Found: 0.001 to 1 µM

###

Items are presented alongside their recorded EC50.
target: AhR receptor (Homo sapiens); construct: expression of native (Human Hepatoma Huh-7) AhR receptor reporter gene cells; endogenous in cells; host or cells: Human hepatoma Huh-7 reporter cells (firefly luciferase under receptor-specific response elements); experiment: AhR agonism assay (luciferase reporter gene cells); format: cell-based

- COMPOUND: "COC(=O)c1csc(C(=O)c2c[nH]c3ccccc23)c1 [Compound 15]"
  EC50: "10000 to 100000 nM"

Lookup: Need EC50, item CC(C)c1nc(C(=O)c2c[nH]c3ccccc23)cs1 [Compound 9]
Found: 1 to 1000 nM

Lookup: What do we get for COC(=O)c1nsc(C(=O)c2c[nH]c3ccccc23)n1 [Compound 8] ?
Found: 1000 to 10000 nM

Lookup: What do we get for COC(=O)c1csc(C(=O)c2cn(CO)c3ccccc23)n1 [Compound 37] ?
Found: 1 to 1000 nM

Lookup: What do we get for COC(=O)c1ccc(C(=O)c2c[nH]c3ccccc23)nc1 [Compound 18] ?
Found: 1000 to 10000 nM

###

Target: AhR receptor (Homo sapiens, UniProt P35869)
Construct: expression of native (Human Hepatoma Huh-7) AhR receptor reporter gene cells; endogenous in cells; host or cells: Human hepatoma Huh-7 reporter cells (firefly luciferase under receptor-specific response elements)
Sequence (P35869 11-848): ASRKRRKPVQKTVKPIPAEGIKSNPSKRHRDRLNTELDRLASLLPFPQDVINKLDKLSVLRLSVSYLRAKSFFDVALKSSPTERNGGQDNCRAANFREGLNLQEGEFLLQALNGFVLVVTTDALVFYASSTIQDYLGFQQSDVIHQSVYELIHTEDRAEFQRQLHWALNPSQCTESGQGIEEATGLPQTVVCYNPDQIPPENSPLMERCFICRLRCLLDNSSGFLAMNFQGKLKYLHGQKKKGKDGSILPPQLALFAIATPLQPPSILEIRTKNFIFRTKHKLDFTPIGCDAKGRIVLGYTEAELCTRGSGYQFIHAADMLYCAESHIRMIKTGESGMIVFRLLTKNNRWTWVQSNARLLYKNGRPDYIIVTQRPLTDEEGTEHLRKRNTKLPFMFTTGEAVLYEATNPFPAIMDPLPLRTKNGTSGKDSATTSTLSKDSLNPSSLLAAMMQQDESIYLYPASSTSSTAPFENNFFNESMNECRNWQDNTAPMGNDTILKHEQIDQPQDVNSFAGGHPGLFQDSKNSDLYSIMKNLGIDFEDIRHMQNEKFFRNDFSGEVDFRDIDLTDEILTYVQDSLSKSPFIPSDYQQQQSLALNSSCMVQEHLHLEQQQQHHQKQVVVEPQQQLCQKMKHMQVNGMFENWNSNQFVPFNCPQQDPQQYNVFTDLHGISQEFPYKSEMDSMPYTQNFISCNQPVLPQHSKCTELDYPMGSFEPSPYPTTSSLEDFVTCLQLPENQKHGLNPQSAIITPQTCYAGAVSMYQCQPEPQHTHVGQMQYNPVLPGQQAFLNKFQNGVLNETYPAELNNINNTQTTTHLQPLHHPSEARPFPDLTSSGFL
Assay: AhR agonism assay (luciferase reporter gene cells)
Format: cell-based
Details: Human Hepatoma Huh-7 AhR reporter gene cells, 24 h incubation at 37° C., 0.1% DMSO; read-out: EC50
pEC50: −log10 of the molar value.
VALUE KIND: pEC50

- COMPOUND: "Nc1nc(-c2csc(C(=O)c3c[nH]c4ccccc34)n2)cs1"
  pEC50: "6.00 to 9.00"
- COMPOUND: "CC(C)[C@H](NC(=O)OC(C)(C)C)C(=O)n1cc(C(=O)c2nc(-c3nccs3)cs2)c2ccccc21"
  pEC50: "6.00 to 9.00"
- COMPOUND: "O=C(c1nc(C2=NCCO2)cs1)c1c[nH]c2ccccc12"
  pEC50: "6.00 to 9.00"
- COMPOUND: "COC(=O)C1CSC(C(=O)c2c[nH]c3ccc(OC)cc23)=N1 (stereo not drawn)"
  pEC50: "6.00 to 9.00"
- COMPOUND: "COC(=O)c1csc(/C(=N/O)c2c[nH]c3ccccc23)n1"
  pEC50: "5.00 to 6.00"

Lookup: Need pEC50, item COC(=O)c1csc(C(=O)c2c[nH]c3ccc(OC)cc23)n1
Found: 6.00 to 9.00

Lookup: What do we get for O=C(c1nc(-c2c[nH]cn2)cs1)c1c[nH]c2ccccc12 ?
Found: 6.00 to 9.00

Lookup: What do we get for COC(=O)c1csc(C(=O)c2cn(C3OC(COC(C)=O)C(OC(C)=O)C(OC(C)=O)C3OC(C)=O)c3ccccc23)n1 (stereo not drawn) [Compound 38-1] ?
Found: 6.00 to 9.00

Lookup: What do we get for COC(=O)C1CSC(c2csc(C(=O)c3c[nH]c4ccccc34)n2)=N1 (stereo not drawn) ?
Found: 6.00 to 9.00

All values here come from patent US20190284149A1.
